# Tested on: Salmonella TA98
# measurement-protocol: Salmonella plate-incorporation mutagenicity assay, strain TA98, with S9 mix
# Format: cell-based
# run-conditions: TA98 +S9, Test 1, 20 µg/plate; zero-dose 33/40/39
Entries and their measured Rev/plate follow.

The following compounds have reported results that may help.
c1ccc2c(c1)ccc1ccc3sccc3c12 [P[3,4-b]T, Phenanthro[3,4,-b]thiophene]; 54 rev/plate
O[C@@H]1c2ccccc2-c2c(ccc3ccccc23)[C@H]1O (racemic) [B[c]P 5,6-diol]; 29 rev/plate
c1ccc2c(c1)ccc1ccc3ccsc3c12 [P[4,3-b]T, Phenanthro[4,3-b]thiophene]; 146 rev/plate
O[C@@H]1C=Cc2c(ccc3ccc4ccccc4c23)[C@H]1O (racemic) [B[c]P 3,4-diol]; 226 rev/plate
O[C@@H]1c2ccccc2-c2c(ccc3ccsc23)[C@H]1O (racemic) [P[4,3-b]T 6,7-diol]; 52 rev/plate

Field: next compound
Recorded Rev/plate of c1ccc2c(c1)ccc1ccc3ccccc3c12 [B[c]P, Benzo[c]phenanthrene] , please.
60 rev/plate
